These data points were gathered from paper PMC11288027.

Test system: B. dorei
assay-protocol: MIC against human gut microbiota
Format: cell-based, Bacteroides dorei
experimental-conditions: Phocaeicola dorei; B. dorei HM- 719, BHIS broth, anaerobic; read-out: minimum inhibitory concentration (MIC)
Where a name gives a salt, the structure may show the parent alone.
The entries below are paired with their reported MIC.
measure-name: MIC

molecule=COc1cc2c(cc1O)CCN[C@]21CS[C@@H]2c3c(OC(C)=O)c(C)c4c(c3[C@H](COC1=O)N1[C@@H]2[C@H]2c3c(cc(C)c(OC)c3O)C[C@@H]([C@@H]1C#N)N2C)OCO4 assayed_system="B. dorei" measure_name=MIC result="≤ 2 µg/mL"
molecule=CCc1c(Cl)c(O)c(Cl)c(O)c1C(=O)O[C@H]1[C@H](O)[C@H](OC)[C@H](OC/C2=C\C=C\C[C@H](O)/C(C)=C/[C@H](CC)[C@@H](O[C@@H]3OC(C)(C)[C@@H](OC(=O)C(C)C)[C@H](O)[C@@H]3O)/C(C)=C/C(C)=C/C[C@@H]([C@@H](C)O)OC2=O)O[C@@H]1C assayed_system="B. dorei" measure_name=MIC result="> 256 µg/mL"
molecule="N=C(N/N=C/c1ccc(Cl)cc1)N/N=C/c1ccc(Cl)cc1 [Robenidine hydrochloride]" assayed_system="B. dorei" measure_name=MIC result="≤ 2 µg/mL"
molecule=Cc1ccc2c(Cl)cc(Cl)c(O)c2n1 assayed_system="B. dorei" measure_name=MIC result="≤ 2 µg/mL"
